The values you see were collected from patent US20240325394A1.

# assay.notes: Pharmacokinetics in MiaPaca 2 tumor-bearing mice (plasma, tumor tissue)
# Format: in vivo
# measurement.conditions: female, mouse, po; Tumor, p.o. 6 mg/kg
assay.metric: half-life (min)
Numbers only; they are read as min.

Give the measured half-life of C=CC(=O)N1CCN(c2nc(=O)n(-c3c(C)ccnc3C(C)C)c3nc(-c4c(O)cccc4F)c(F)cc23)[C@@H](C)C1 [AMG 510, reference compound] .
18

----------
List of Residual rate (%) 60 min values.
# assay.notes: Plasma stability, human plasma
# Type: in vitro ADME
# measurement.conditions: human, 60 min, 0.5 μM
Numbers only; they are read as %.

Known Residual rate (%) 60 min results, listed for orientation:
compound="CC(C)[N+](C)(CCOC(=O)C1c2ccccc2Oc2ccccc21)C(C)C [Propantheline, reference compound]" assay_metric="Residual rate (%) 60 min" endpoint_result=14.65
compound="C=CC(=O)N1CCN(c2nc(=O)n(-c3c(C)ccnc3C(C)C)c3nc(-c4c(O)cccc4F)c(F)cc23)[C@@H](C)C1 [AMG 510, reference compound]" assay_metric="Residual rate (%) 60 min" endpoint_result=82.51
compound="C=CC(=O)N1C[C@H](C)N(c2nc(=O)n(-c3c(SC)ccnc3C(C)C)c3nc(-c4c(N)ccc(Cl)c4F)c(Cl)cc23)C[C@H]1C (atropisomer, axis not shown) [Embodiment 13-1]" assay_metric="Residual rate (%) 60 min" endpoint_result=90.27

Turning to the following compound.
Give the measured Residual rate (%) 60 min of C=CC(=O)N1C[C@H](C)N(c2nc(=O)n(-c3c(SC)ccnc3C(C)C)c3nc(-c4c(O)cccc4F)c(Cl)cc23)C[C@H]1C (atropisomer, axis not shown) [Embodiment 14-1] .
89.14

----------
List of Residual rate (%) 0 min values.
# assay.notes: Plasma stability, human plasma
# Type: in vitro ADME
# measurement.conditions: human, 0 min, 0.5 μM
Lab note: write values as number then unit, every time.

compound="C=CC(=O)N1CCN(c2nc(=O)n(-c3c(C)ccnc3C(C)C)c3nc(-c4c(O)cccc4F)c(F)cc23)[C@@H](C)C1 [AMG 510, reference compound]" endpoint_result=100.00%

Give the measured Residual rate (%) 0 min of CC(C)[N+](C)(CCOC(=O)C1c2ccccc2Oc2ccccc21)C(C)C [Propantheline, reference compound] .
100.00%

Give the measured Residual rate (%) 0 min of C=CC(=O)N1C[C@H](C)N(c2nc(=O)n(-c3c(SC)ccnc3C(C)C)c3nc(-c4c(N)ccc(Cl)c4F)c(Cl)cc23)C[C@H]1C (atropisomer, axis not shown) .
100.00%

Give the measured Residual rate (%) 0 min of C=CC(=O)N1C[C@H](C)N(c2nc(=O)n(-c3c(SC)ccnc3C(C)C)c3nc(-c4c(O)cccc4F)c(Cl)cc23)C[C@H]1C (atropisomer, axis not shown) .
100.00%

----------
List of half-life at 0.5 μM values.
# assay.notes: Plasma stability, mouse plasma
# Type: in vitro ADME
# measurement.conditions: mouse, plasma
Numbers only; they are read as h.

Give the measured half-life at 0.5 μM of CC(C)[N+](C)(CCOC(=O)C1c2ccccc2Oc2ccccc21)C(C)C [Propantheline, reference compound] .
0.462

Give the measured half-life at 0.5 μM of C=CC(=O)N1CCN(c2nc(=O)n(-c3c(C)ccnc3C(C)C)c3nc(-c4c(O)cccc4F)c(F)cc23)[C@@H](C)C1 [AMG 510, reference compound] .
3.08
